# Tested on: T47D
# test-method-notes: NCI tumour cell line growth inhibition, 48 h
The source made the active and inactive calls. Rule as the data show it: active = GI50 up to about 1.1 µM and inactive = higher.
Use one of these outcomes when replying: label 1 (active), label 0 (inactive)

Enquiry: Hey, what did the test say about CCCCc1ccc(-n2sc3ncc([N+](=O)[O-])cc3c2=O)cc1 ?
Return: label 0

Enquiry: Hey, what did the test say about CC1=NNC(=O)C1C1CC(c2c[nH]c3ccccc23)=NNC1=O (stereo not given) ?
Return: label 0

Enquiry: Hey, what did the test say about COc1ccc2c(C)c(Oc3c(Cl)c(Cl)c(O)c(C#N)c3C#N)oc2c1 ?
Return: label 0

Enquiry: Hey, what did the test say about O=C(O)CCc1nc(-c2ccccc2-n2cccc2)no1 ?
Return: label 0

Enquiry: Hey, what did the test say about CN(O)C(=S)c1ccccc1 ?
Return: label 0

Enquiry: Hey, what did the test say about O=C1C=C2CC[C@H]3[C@@H]4CC[C@H](Oc5c6ccccc6nc6ccccc56)[C@H]4CC[C@@H]3[C@H]2CC1 ?
Return: label 0

Enquiry: Hey, what did the test say about CC[C@@]1(O)C(=O)OCc2c1cc1n(c2=O)Cc2c-1nc1ccccc1c2/C=N\NC(=O)C(N)Cc1ccc(O)cc1 (stereo not given in full) ?
Return: label 1

Enquiry: Hey, what did the test say about C1CCC(OC2CSC2)OC1 (stereo not given) ?
Return: label 0

Enquiry: Hey, what did the test say about O=C(CSCC(=O)N/N=C\c1ccc(-c2ccccc2)cc1)N/N=C\c1ccc(-c2ccccc2)cc1 ?
Return: label 0

Enquiry: Hey, what did the test say about CCOC(=O)C(SCCO)C(C(=O)OCC)n1ccc(N)nc1=O (stereo not given) ?
Return: label 0

* * *

# Test system: SN12C
# test-method-notes: NCI tumour cell line growth inhibition, 48 h
Activity calls are given as the source filed them. Cut-off read from the data, not from the text of the source: active = GI50 up to about 1.1 µM and inactive = higher.
Use one of these outcomes when replying: active, inactive

Enquiry: Hey, what did the test say about O=C(CCCC(=O)Nc1ccc(Cl)cc1Cl)CC(=O)c1ccc2ccccc2c1 ?
Return: inactive

Enquiry: Hey, what did the test say about Cc1cc2c(=O)cc(-c3ccc(O)cc3)oc2c(C(=O)O)c1C ?
Return: inactive

Enquiry: Hey, what did the test say about NNc1nc2ccccc2s1 ?
Return: inactive

Enquiry: Hey, what did the test say about CN1c2ccccc2NC(CC(=O)O)C2CC=CN21 (stereo not given) ?
Return: inactive

Enquiry: Hey, what did the test say about CC(=O)O[C@@H]1C[C@@]2(C)[C@@H]3CC=C4[C@@H](C[C@H](O)C(=O)C4(C)C)[C@]3(C)C(=O)C[C@]2(C)[C@H]1[C@@](C)(O)C(=O)/C=C/C(C)(C)OC(C)=O ?
Return: active

* * *

Kindly supply the reported GI50 values for the records listed here.
# Test system: OVCAR-4
# test-method-notes: NCI tumour cell line growth inhibition, 48 h
Calls of active or inactive are those of the source. Rule as the data show it: active = GI50 up to about 1.1 µM and inactive = higher.

Just so you know, measured GI50 for CNc1ccc(Cl)cc1C(=O)N1CCC[C@H]1CO came out at > 100 µM (inactive)

Just so you know, measured GI50 for CN(C)C(=S)C(Cl)(c1ccccc1)c1ccccc1 came out at 35.4 µM (inactive)

Just so you know, measured GI50 for O=C(CC1(O)C(=O)Nc2ccccc21)c1ccc(O)cc1 (stereo not given) came out at > 100 µM (inactive)

Just so you know, measured GI50 for Oc1ncnc2c1nnn2CCCn1nnc2c(O)ncnc21 came out at > 100 µM (inactive)

Just so you know, measured GI50 for C=CCOC(=O)CC[C@H](NC(=O)[C@@H](CCC(F)(F)F)Cc1ccc(O)cc1)C(=O)OCC=C came out at 65.2 µM (inactive)

Just so you know, measured GI50 for CCCCCCCCCCCCCCCC(=O)OCC1OC(N2C(=O)/C(=N\NC(N)=S)c3ccc([N+](=O)[O-])cc32)C(OC(C)=O)C1OC(C)=O (stereo not given) came out at > 100 µM (inactive)

Just so you know, measured GI50 for CCOC(=O)C(SCCO)C(C(=O)OCC)n1ccc(N)nc1=O (stereo not given) came out at > 100 µM (inactive)

Just so you know, measured GI50 for O=S1(=O)c2ccccc2NC(=S)N1c1ccccc1 came out at 53.3 µM (inactive)

Just so you know, measured GI50 for O=C1Nc2ccc(Br)cc2/C1=N/S(=O)(=O)O came out at 19 µM (inactive)

Just so you know, measured GI50 for Cc1cn(C2CC(O)C(Cn3nncc3Cn3ccc(=O)[nH]c3=O)O2)c(=O)[nH]c1=O (stereo not given) came out at > 100 µM (inactive)

* * *

Kindly supply the reported GI50 values for the records listed here.
# System: SF-295
# test-method-notes: NCI tumour cell line growth inhibition, 48 h
Calls of active or inactive are those of the source. Cut-off read from the data, not from the text of the source: active = GI50 up to about 1.1 µM and inactive = higher.

Just so you know, measured GI50 for CC(C)CC(NC=O)C(=O)NC(Cc1ccccc1)NC(=O)CNC(=O)C(C)NC(=O)OC(C)(C)C (stereo not given) came out at > 100 µM (inactive)

Just so you know, measured GI50 for CC(C)(C)OC(=O)C#CC[C@H]1CCCC1/C=C/C(O)=C1/C(=O)NC(CCCNC(=O)OC(C)(C)C)C1=O (stereo not given in full) came out at 41.4 µM (inactive)

Just so you know, measured GI50 for CCCCCCCCCCCCCCCC(=O)OCC1OC(N2C(=O)/C(=N\NC(N)=S)c3ccc([N+](=O)[O-])cc32)C(OC(C)=O)C1OC(C)=O (stereo not given) came out at > 100 µM (inactive)

Just so you know, measured GI50 for CCOCCOC(=O)C1CCC(=O)N1CN(C(C)=O)c1cc(OC)ccc1OC (stereo not given) came out at > 100 µM (inactive)

Just so you know, measured GI50 for Nc1nc(Nc2ccccc2)sc1C(=O)c1ccc(Cl)cc1 came out at 3.7 µM (inactive)

Just so you know, measured GI50 for CC(=C\c1ccccc1)/C=C(\C#N)C(N)=O came out at > 10 µM (inactive)

Just so you know, measured GI50 for CNc1ccc(Cl)cc1C(=O)N1CCC[C@H]1CO came out at > 100 µM (inactive)

Just so you know, measured GI50 for CCCCCCC(O)C(O)CCC(O)C1CCC(CCCCC(O)CC2=CC(C)OC2=O)O1 (stereo not given) [ACETOGENINS] came out at 1.83 µM (inactive)

Just so you know, measured GI50 for CC1CC(C)CN(S(=O)(=O)c2cc(Cl)c(Oc3ccc([N+](=O)[O-])cc3Cl)c(Cl)c2)C1 (stereo not given) came out at > 100 µM (inactive)

Just so you know, measured GI50 for CC(C)C1OC(=O)/C=C/C=C/C=C/C=C/C=C/CC(O)CC(O)CC(O)CC(O)CC(O)CC(O)CC(O)CC(O)/C=C/C1C (stereo not given) came out at > 100 µM (inactive)

Just so you know, measured GI50 for COc1ccc(CC(COS(=O)(=O)c2ccc(C)cc2)NS(=O)(=O)c2ccc(C)cc2)cc1 (stereo not given) came out at 13.7 µM (inactive)

Just so you know, measured GI50 for O=C1N/N=C\c2ccc(cc2)OCc2cccc(n2)COc2ccc(cc2)/C=N\NC1=O came out at > 25 µM (inactive)

Just so you know, measured GI50 for NC1CCC[C@H]1O (stereo not given in full) came out at > 100 µM (inactive)

Just so you know, measured GI50 for CC(C)CC1CC2C(=O)N(c3ccccc3)C(=O)C2c2[nH]c3ccccc3c21 (stereo not given) came out at 20.7 µM (inactive)

Just so you know, measured GI50 for Cc1[nH]n(-c2nc3c(c(=O)[nH]2)CCCC3)c(=O)c1CCO came out at > 100 µM (inactive)

Just so you know, measured GI50 for CC1=C(C)Cc2c(O)ccc(O)c2C1 came out at 47.4 µM (inactive)

Just so you know, measured GI50 for CC1(C)OP(=O)(O)C=C1Sc1ccc([N+](=O)[O-])cc1[N+](=O)[O-] came out at > 100 µM (inactive)

Just so you know, measured GI50 for Cc1cc2c(=O)cc(-c3ccc(O)cc3)oc2c(C(=O)O)c1C came out at > 100 µM (inactive)

Just so you know, measured GI50 for N=C(c1ccccc1)N(O)C1CCCCC1 came out at > 100 µM (inactive)

Just so you know, measured GI50 for CN(C)C(=O)OC1C(=O)N(C)c2ccc(Cl)cc2C2(c3ccccc3)N1C2(Cl)Cl (stereo not given) came out at 77.1 µM (inactive)

* * *

# System: PC-3
# test-method-notes: NCI tumour cell line growth inhibition, 48 h
The source made the active and inactive calls. Rule as the data show it: active = GI50 up to about 1.1 µM and inactive = higher. Where a SMILES comes first, the peptide text is derived from it. [ ]: non-standard residue; d: D form. The star is where a group is joined. Octanoyl = CCCCCCCC(=O)*; Aib = CC(C)(N)C(=O)O; tBu = CC(C)(C)*
Kindly supply the reported GI50 values for the records listed here.

Just so you know, measured GI50 for Cc1cn([C@H]2C[C@@H]3[C@@H](COC(CCl)N3O)O2)c(=O)[nH]c1=O (some centres not stated) came out at > 100 µM (inactive)

Just so you know, measured GI50 for Cc1cc(=O)oc2c3c(ccc12)OC(c1ccc(Br)cc1)CC3=O (configuration not stated) came out at 6.25 µM (inactive)

Just so you know, measured GI50 for Sc1nnc(COc2ccc(Cl)cc2)n1-c1ccccc1 came out at > 100 µM (inactive)

Just so you know, measured GI50 for CCCCCCCC(=O)NC(C)(C)C(=O)NC(COC(C)(C)C)C(=O)NC(CC(C)C)C(=O)NC(C)(C)C(=O)NC(COC(C)(C)C)C(=O)NC(COC(C)(C)C)C(=O)NC(CC(C)C)C(=O)NC(C)(C)C(=O)NC(COC(C)(C)C)C(=O)NC(C(=O)NC(CC(C)C)C(=O)OC)C(C)CC (configuration not stated) (Octanoyl-[Aib]S(tBu)L[Aib]S(tBu)S(tBu)L[Aib]S(tBu)IL-OMe; configuration not given here) came out at 4.23 µM (inactive)

Just so you know, measured GI50 for COc1cc2c3cc1Oc1c(OC)c(OC)cc4c1C(Cc1ccc(cc1)Oc1cc(ccc1O)CC3N(C)CC2)N(C)CC4 (configuration not stated) came out at 10.4 µM (inactive)

Just so you know, measured GI50 for CNC(=S)N/N=C(\C)c1cc(OC)c(OC)cc1O came out at > 100 µM (inactive)

Just so you know, measured GI50 for O=c1[nH]cc(/N=C/c2cc(Cl)cc(Cl)c2O)c(=O)[nH]1 came out at 27.8 µM (inactive)

Just so you know, measured GI50 for CC1=CC(=O)/C(=C/n2c(=S)[nH]c3ccc([N+](=O)[O-])cc32)C(=O)O1 came out at > 100 µM (inactive)

Just so you know, measured GI50 for CC(C)CCCC(C)[C@H]1CCC2[C@@H]3CCC4Cc5nc6c(nc5C[C@]4(C)C3CC[C@@]21C)CC1CC[C@@H]2C(CC[C@@]3(C)C2CC[C@@H]3C(C)CCCC(C)C)[C@@]1(C)C6 (some centres not stated) came out at > 100 µM (inactive)

Just so you know, measured GI50 for CCOC(=O)Nc1nn(C)/c(=N/Cc2ccccc2)s1 came out at > 100 µM (inactive)

Just so you know, measured GI50 for CC(=O)Nc1ccc(/C=C/[N+](=O)[O-])cc1 came out at 5.71 µM (inactive)

Just so you know, measured GI50 for CCOC(=O)C1=C(C)N(Cc2ccc(Cl)cc2Cl)C2(O)C=CC(=O)C3C(=O)N(c4ccccc4)C(=O)C132 (configuration not stated) came out at 1.5 µM (inactive)

Just so you know, measured GI50 for C=C1c2c(n(S(=O)(=O)c3ccccc3)c3ccccc23)[C@@]2(C(=O)OC)CC3C=CC2N1C3 came out at > 100 µM (inactive)

Just so you know, measured GI50 for CCCC/C=C1\CCC(CN2CCCCC2)C1=O (configuration not stated) came out at > 100 µM (inactive)

Just so you know, measured GI50 for Cc1ccc(Nc2n[nH]c(=S)s2)cc1 came out at > 100 µM (inactive)

Just so you know, measured GI50 for CCN(CC)C(=O)N1CN(c2ccccc2)C2(CCN(CCCC3(c4ccc(F)cc4)OCCO3)CC2)C1=O came out at 17.5 µM (inactive)

Just so you know, measured GI50 for Cc1cc(Oc2cnc(=O)[nH]c2)cs1 came out at > 100 µM (inactive)
